# pIC50 per entry
System: BGC-823
Assay: Antiproliferative activity against human BGC823 cells after 48 hrs by MTT assay
Assay type: functional, cell-based
Conditions: BGC-823, 48 h
pIC50: −log10 of the molar value.
metric: pIC50

[[record]]
smiles_entry = "COC(C)(C)CCC[C@@](C)(O)[C@H]1CC[C@]2(C)[C@@H]1[C@H](O)C[C@@H]1[C@@]3(C)CC[C@H](OC(=O)c4ccccc4I)C(C)(C)[C@@H]3CC[C@]12C"
val = 4.54

[[record]]
smiles_entry = "COC(C)(C)CCC[C@@](C)(O)[C@H]1CC[C@]2(C)[C@@H]1[C@H](O)C[C@@H]1[C@@]3(C)CC[C@H](OC(=O)c4cc(C)cc(C)c4)C(C)(C)[C@@H]3CC[C@]12C"
val = "< 4.30"

[[record]]
smiles_entry = "COC(C)(C)CCC[C@@](C)(O)[C@H]1CC[C@]2(C)[C@@H]1[C@H](OC(=O)c1cc(C)cc(C)c1)C[C@@H]1[C@@]3(C)CC[C@H](OC(=O)c4cc(C)cc(C)c4)C(C)(C)[C@@H]3CC[C@]12C"
val = "< 4.30"


---

Quick reference: IC50 of the listed items.
Tested on: HepG2
Assay: Antiproliferative activity against human HepG2 cells after 48 hrs by MTT assay
Type: functional, cell-based
Conditions: HepG2, 48 h
metric: IC50

[[record]]
smiles_entry = "COC(C)(C)CCC[C@@](C)(O)[C@H]1CC[C@]2(C)[C@@H]1[C@H](OC(=O)c1ccc(Br)cc1)C[C@@H]1[C@@]3(C)CC[C@H](O)C(C)(C)[C@@H]3CC[C@]12C"
val = "> 50 µM"

[[record]]
smiles_entry = "COC(C)(C)CCC[C@@](C)(O)[C@H]1CC[C@]2(C)[C@@H]1[C@H](OC(=O)c1ccccc1I)C[C@@H]1[C@@]3(C)CC[C@H](OC(=O)c4ccccc4I)C(C)(C)[C@@H]3CC[C@]12C"
val = "> 50 µM"

[[record]]
smiles_entry = "COC(C)(C)CCC[C@@](C)(O)[C@H]1CC[C@]2(C)[C@@H]1[C@H](O)C[C@@H]1[C@@]3(C)CC[C@H](OC(=O)c4ccccc4Cl)C(C)(C)[C@@H]3CC[C@]12C"
val = "19.2 µM"


---

System: PC-3
Test: Antiproliferative activity against human PC3 cells after 48 hrs by MTT assay
Type: functional, cell-based
Conditions: PC-3, 48 h
pIC50: −log10 of the molar value.
pIC50: recorded values
metric: pIC50

[[record]]
smiles_entry = "COC(C)(C)CCC[C@@](C)(O)[C@H]1CC[C@]2(C)[C@@H]1[C@H](O)C[C@@H]1[C@@]3(C)CC[C@H](OC(=O)c4ccccc4)C(C)(C)[C@@H]3CC[C@]12C"
target_or_test_system = "PC-3"
val = 4.52

[[record]]
smiles_entry = "COC(C)(C)CCC[C@@](C)(O)[C@H]1CC[C@]2(C)[C@@H]1[C@H](O)C[C@@H]1[C@@]3(C)CC[C@H](OC(=O)c4ccc(F)cc4F)C(C)(C)[C@@H]3CC[C@]12C"
target_or_test_system = "PC-3"
val = 4.94

[[record]]
smiles_entry = "COC(C)(C)CCC[C@@](C)(O)[C@H]1CC[C@]2(C)[C@@H]1[C@H](OC(=O)c1cc(I)ccc1Cl)C[C@@H]1[C@@]3(C)CC[C@H](OC(=O)c4cc(I)ccc4Cl)C(C)(C)[C@@H]3CC[C@]12C"
target_or_test_system = "PC-3"
val = "< 4.30"

[[record]]
smiles_entry = "COC(C)(C)CCC[C@@](C)(O)[C@H]1CC[C@]2(C)[C@@H]1[C@H](O)C[C@@H]1[C@@]3(C)CC[C@H](OC(=O)c4ccc(I)cc4)C(C)(C)[C@@H]3CC[C@]12C"
target_or_test_system = "PC-3"
val = "< 4.30"

[[record]]
smiles_entry = "COC(C)(C)CCC[C@@](C)(O)[C@H]1CC[C@]2(C)[C@@H]1[C@H](O)C[C@@H]1[C@@]3(C)CC[C@H](OC(=O)c4cc(I)ccc4Cl)C(C)(C)[C@@H]3CC[C@]12C"
target_or_test_system = "PC-3"
val = "< 4.30"

[[record]]
smiles_entry = "COC(C)(C)CCC[C@@](C)(O)[C@H]1CC[C@]2(C)[C@@H]1[C@H](O)C[C@@H]1[C@@]3(C)CC[C@H](OC(=O)/C=C/c4ccccc4)C(C)(C)[C@@H]3CC[C@]12C"
target_or_test_system = "PC-3"
val = 4.43

[[record]]
smiles_entry = "COC(C)(C)CCC[C@@](C)(O)[C@H]1CC[C@]2(C)[C@@H]1[C@H](OC(=O)c1cc([N+](=O)[O-])cc([N+](=O)[O-])c1)C[C@@H]1[C@@]3(C)CC[C@H](O)C(C)(C)[C@@H]3CC[C@]12C"
target_or_test_system = "PC-3"
val = "< 4.30"

[[record]]
smiles_entry = "COC(C)(C)CCC[C@@](C)(O)[C@H]1CC[C@]2(C)[C@@H]1[C@H](OC(=O)c1cc(F)ccc1Br)C[C@@H]1[C@@]3(C)CC[C@H](OC(=O)c4cc(F)ccc4Br)C(C)(C)[C@@H]3CC[C@]12C"
target_or_test_system = "PC-3"
val = "< 4.30"

[[record]]
smiles_entry = "COC(C)(C)CCC[C@@](C)(O)[C@H]1CC[C@]2(C)[C@@H]1[C@H](OC(=O)c1ccccc1)C[C@@H]1[C@@]3(C)CC[C@H](O)C(C)(C)[C@@H]3CC[C@]12C"
target_or_test_system = "PC-3"
val = "< 4.30"

